- System: A549
- ASSAY_TEXT: Cytotoxicity against A-549 cell line in the purdue cell culture screen was determined
- Format: functional
- CONDITION_PARAMETERS: Homo sapiens, read-out: ED50 (the source's name)
pEC50: −log10 of the molar value.
OUTCOME_MEASURE: pEC50

>>> test_value("CC(=O)O[C@H]1CC[C@@]2(C)[C@@](C)(CCC3[C@]2(C)CC[C@@]2(C)[C@@]3(C)CC(=O)[C@]2(O)[C@H](C)C2(CCC(C)C)OCCO2)C1 (some centres undefined)")
4.51
>>> test_value("CC(C)CCC(=O)[C@@H](C)[C@@]1(O)[C@H](O)C[C@@]2(C)C3CC[C@@]4(C)C[C@@H](O)CC[C@]4(C)[C@@]3(C)CC[C@]12C (some centres undefined)")
4.77
>>> test_value("CC(=O)O[C@H]1CC[C@@]2(C)C(=CCC3[C@]4(C)CC(=O)[C@](O)([C@H](C)C5(CCC(C)C)OCCO5)[C@@]4(C)CC[C@@]32C)C1 (some centres undefined)")
4.82
>>> test_value("CC(C)CCC1([C@@H](C)[C@@]2(O)[C@H](O)C[C@@]3(C)C4CC[C@@]5(C)C[C@@H](O)CC[C@]5(C)[C@@]4(C)CC[C@]23C)OCCO1 (some centres undefined)")
4.89
>>> test_value("CC(=O)O[C@H]1CC[C@@]2(C)C(=CCC3[C@]4(C)C[C@H](O)[C@](O)([C@H](C)C5(CCC(C)C)OCCO5)[C@@]4(C)CC[C@@]32C)C1 (some centres undefined)")
4.82
>>> test_value("CC(C)CCC1([C@@H](C)[C@@]2(O)C(=O)C[C@@]3(C)C4CC[C@@]5(C)C[C@@H](O)CC[C@]5(C)[C@@]4(C)CC[C@@]32C)OCCO1 (some centres undefined)")
4.77
>>> test_value("CC(C)CCC(=O)[C@@H](C)[C@@]1(O)C(=O)C[C@@]2(C)C3CC[C@@]4(C)C[C@@H](O)CC[C@]4(C)[C@@]3(C)CC[C@@]21C (some centres undefined)")
3.98
>>> test_value("CO/N=C1\\C[C@]2(C)CCC3C4=C[C@@H]5OC6(CC(C)(C)CO6)[C@@H](C)[C@@H]5[C@@]4(C)[C@H](O)C[C@]3(C)[C@@]2(C)C[C@H]1N (some centres undefined)")
5.23
>>> test_value("CC(=O)O[C@H]1CC[C@@]2(C)[C@@](C)(CCC3[C@]2(C)CC[C@]2(C)[C@@](O)([C@H](C)C4(CCC(C)C)OCCO4)[C@H](O)C[C@@]32C)C1 (some centres undefined)")
4.52
